- EXPERIMENT SUMMARY: soluble fraction after stress (log2 fold change); higher = more stays soluble; pooled small domains, quantitative proteomics
- REPORTED CONDITIONS: stress: pH 4
Returns y if the recorded soluble fraction (log2) is greater than or equal to -0.05, and n otherwise.

Please check the record HMKKASLSTVEKKLMKQNYSNDTMENRLARVESYMFGTVFSSDDTQTRIDRISSAYNAQKSS and state if its soluble fraction (log2) is at or above -0.05.
n

// inclusive: soluble fraction (log2) at least -0.05? input: HMLPYKGTVAVSLAVLHKAVGVGTADMLKAVGTLRQGTEVTVTGRNGPFAQLKNGLWMKESFLE
y

Tell me whether soluble fraction (log2) is at least -0.05 here: HMKSQSIFNVKKGDTLSHIAVHVLKKNKQKVTPEAINKMVSNIAFRNKIKNPDLIFPGQKLVLEY
y

Tell me whether soluble fraction (log2) is at least -0.05 here: HMSYDAINGYEPSDLRGSLTLEQTASMLNLPLTDVYARLGLPANYPSGATLKDGAADMGMGLSDFKHQLF
y

Is soluble fraction (log2) for HMKAKTYTVQYIDEGKIIKEEELEEGSIINAPEVTKEGHTFIGWYEGEEKYDVYEPITRNLILESKNEIN at or above -0.05?
n

New cases:
Hi team, for HMVEPLIVRNFSINYADIDKLETKIKDYISNSDKSGVNRGRVTSDTRTNMLIVTETASKLAQVEQLLKALD , is the recorded soluble fraction (log2) at or above -0.05?
n

Hello, I need to know if HMNSFGWESFVGEKGVTDTDLRPSGWIVIKDKRLFALTEGTFIEKGVSVEILSVEGNRIVVREIS has measured soluble fraction (log2) not below -0.05. Thanks!
n

Answer whether soluble fraction (log2) of HMSIYMNIYNEFKKYIIANVYKYDDKLPSVRSIALEYGINPNTVQRAFQLLEDEGYIKTISKKGVYVNYR is greater than or equal to -0.05.
y

###

- EXPERIMENT SUMMARY: soluble fraction after stress (log2 fold change); higher = more stays soluble; pooled small domains, quantitative proteomics
- REPORTED CONDITIONS: stress: pH 4
ASSAY METRIC: soluble fraction (log2)
One number for each entry.

Which soluble fraction (log2) value is on record for HMLTWNQLGLITKPVVFLDGTGYYARLFEAFEHMISTGFVKENYRAMMNRATSVEEAVRIASSPAPKVD ?
-0.187

Give the measured soluble fraction (log2) of HMNTAIDGLIEKVGMFAMEKKAISVDQVKENFSINGEQAESVIKQLETIGVLGKKNEDGTHTVM .
-0.0986

Request the reported soluble fraction (log2) associated with HMELNFEGFYRFVRDELNVDLNAYKEKQLKRRIATVMKSSGALTLEDYSRLIANDEVIRNKFLDYITI
-0.894

Quick one: soluble fraction (log2) for HMDKPGMRLNQFIAHSGISSRREADNLIKAGLVQVNGKIIVEMGFRVMPTDIVKFNNETIAS ?
0.378

Dear colleague, could you please provide soluble fraction (log2) for the sequences listed below?
1. HMNMAEQGISLDSEAGKARFVSQALPLLKQLPDGVFKQRMLNQLADRVEVTADFIAQQLAQLKAA
2. HMTSPVEDLLDKAIQLYREENFEEAIAKWEEVLALDPSKLEAKFNIEIAQDRIKEKQIQEDLKSS

-0.266
-0.935

Batch of 2 sequences: report soluble fraction (log2) for each.
1. HMKYEGEDEYYASLVTEKIAAIGTVTEESEDAIKEARAAYDALTSAQKKLVTNYDVLDEAEK
2. HMVYLPSSIKNIPTKYGEMMVANFKMDELQANSKNGWVSMVISERREPSEKGATHYAYVNTY

1: 0.302; 2: 0.106

###

- EXPERIMENT SUMMARY: soluble fraction after stress (log2 fold change); higher = more stays soluble; pooled small domains, quantitative proteomics
- REPORTED CONDITIONS: stress: pH 4
Mark 1.0 for reported soluble fraction (log2) of -0.2 or greater; mark 0.0 for anything smaller.

Reference set (5 entries):
Please tell me: is the sequence HMVDQKLIQASAEHSGIRIDRFLSEQLPEHSRSYIQKLIKDGQVSIGGKAVKSNYKIAGTEEISLLIPDQ at or over -0.2 in terms of soluble fraction (log2)?
0.0

Does soluble fraction (log2) meet or surpass -0.2 for HMDLTPEEQMDLYRLLDSLPTEERTYLILHYFEERSFPEMAEILSMPEAKLKSRFYRILHRLRAHL ?
0.0

Textbook exercise: given the entry HMKELAADFSRRIINARTSKGWSQADLGQRMAETINVIKSAESGKPPTDAVVKKFETVLGVILM , state whether its soluble fraction (log2) is greater than or equal to -0.2.
1.0

# bool: soluble fraction (log2) of HMYSKVSFTVSVGMTSERVSASLKALGIIDDSAKFNRYLVSNGYSTRIKVGTVELQAGQSYAEIASKLV >= -0.2
1.0

In plain terms: is recorded soluble fraction (log2) at least -0.2 for HMTEKQYIYSIGDRVNIGTDEFEIVNINEKEVSIADVTFPMLVKQISYEEFDRKVKENPFNDHLII ?
0.0

Further cases:
Check if soluble fraction (log2) >= -0.2 (inclusive). Item: HMTQEHDESVNLGKRLLDQALSRFGTSYRQLKKSEIKRILQSSGASTFKYILHQIGLGNRVPLAIANLIV
1.0

Exam item: decide whether the reported soluble fraction (log2) for HMDDHLRLSDNERISAMSALATHFTEGRLDTSEFDERTLAASQAKSRGDLRPLFDDLPGQLPAALSP is at least -0.2.
1.0

Has HMQDPTAVISRVLEERKHQPGALLPILHGIQDALGYVPREAVAQIAQALNLSRAEIHGVVSFYHHFR a recorded soluble fraction (log2) greater than or equal to -0.2?
0.0

Is it the case that HMGFALLIAIERTGNTTYFVKLTLIKKGSDSDVLKDSFSVSQGDLVGTATYDSVIANRIREKTAAMWQKAT has soluble fraction (log2) reaching or exceeding -0.2?
0.0

Could you verify whether the entry HMSFSPYLVRVSITDLNIRKGPGTNYAKTGKFTGKGVFTIVEMQTGKGSDTGWGRLKSGAGWISLDYTEKI shows soluble fraction (log2) of no less than -0.2?
1.0

Say whether HMRPLISQTLRIDRGEGDIAGPLGVLAKEYPHLSMGSYPFQKDGIYGAHVVIRGSDPGMVEAAMDKLKAAF shows soluble fraction (log2) of -0.2 or more.
1.0

Please indicate if the recorded soluble fraction (log2) for HMGYNDQEVKSNLITLLSTSKTGLSGVEISAQLGINRVTMTKFLNVFAAEGIIKQKNIGNLNLWLVEEGTE meets or exceeds -0.2.
1.0

Exam item: decide whether the reported soluble fraction (log2) for HMQSAMALTKDLIEQQGKYYHRGQPFTGVGFAKNKKGKFVTEEPFKNGLLHGKRVNYDHNGHVLAREK is at least -0.2.
1.0

Reported soluble fraction (log2) reaches at least -0.2 for HMENSPLTHREAEVMRLMSEGKSNRAISEHLVISEKTVKNHVSSILQKMSVDDRTQAVLQAIKNGWVD ?
1.0

Record HMIDHKVIRSFRQKRNMTLQELAQKANLSVSYLSEIELGKKQPSLETLDKLSKALNISLEGL ; criterion: soluble fraction (log2) no lower than -0.2. Met?
1.0

# bool: soluble fraction (log2) of HMVGMDRYFKIKNIKDSSAAFERDYILHFLKENDWMVSKTAQMIGLERTTLYKKIKQLGLASMLEN >= -0.2
0.0

For this sequence, is measured soluble fraction (log2) -0.2 or higher? HMASVLTGMLGRVTGELAPKGIVMVGNETWTAVSEDDSVIRIGEPVEVRSVEGLILTVFRRID
0.0

###

- EXPERIMENT SUMMARY: soluble fraction after stress (log2 fold change); higher = more stays soluble; pooled small domains, quantitative proteomics
- REPORTED CONDITIONS: stress: pH 4
ASSAY METRIC: soluble fraction (log2)
Give bare numbers.

// soluble fraction (log2) lookup, key: HMSGLVPAIGTKGEEGYIRESDIPGSNVKNPEEALAYMEWLKTQPSELLIPLYDEQGNVIGQFAVS
-0.681

List reported soluble fraction (log2) for each of these sequences:
1. HMKEVELENMIKAKGFKDAAVLVDERSVTVIVESERLAAGDSASIKELVSRGTGVDPQNVVII
2. HMPLQKNRPKIKPQKVVFLFSVEWMWSPAHNRIDSYFINIKPSRYYLWNSFFDRHSFSDYWDFIGYTEN

[-0.295, 0.22]

###

Answer each item with its documented soluble fraction (log2).
- EXPERIMENT SUMMARY: soluble fraction after stress (log2 fold change); higher = more stays soluble; pooled small domains, quantitative proteomics
- REPORTED CONDITIONS: stress: pH 4

Example entries and their recorded answers appear below.
Fill blank: measured soluble fraction (log2) of the sequence HMNNEISINGNKIYFNKNISKVFIYDISGKLIKHKNNFNNNFIDLSEFNSAFYIIKALDINENYTTKKIFL is ____.
-0.597

Name the recorded soluble fraction (log2) for HMAIMISINAKGEVAWNDQIISLDDLAQRFNAAGQQAQKPTVQLRADKESRYDMVAQVMSRASEAGLSDIA .
-0.966

So what's the measured soluble fraction (log2) for this one? HMRDYKTHLQEVLQSKGEVNIWYKLIDEKGPDHNKKFVMQVGIDSKILGFGEGKSKKEAEQVAARKALDNI
-0.317

Record request: soluble fraction (log2) value, item HMAQDIEQLEKAVSFYTRMDPAAAALSITNLDQKTAVNILMRMKDKQASAVLESMTAERSSELIDSIARK
-0.863

What measured soluble fraction (log2) goes with HMAFRIGGFVQEGSVVRQQDGGTVRFEVTDTAHSVPVTYKGSLPDLFKEGKGVVAQGKLMNGTFVADQVLA ?
-0.186

Need soluble fraction (log2), item HMGLSARIAQRIHGLRTAQRMSLEALAARSGVSRSMISLIERNEASPTAVVLEKIATGLNVVLAALFDTP
-0.324

Parameters: items (list). Returns: soluble fraction (log2) for each item.
1. HMNKTVKIPNVSNLSREDAESVLKENGISVNSEVKQIESDTIEKGKVVKTDPSIGTSVKKGRSITIYVSSG
2. HMVDYIGRRGVMLSTVSEEKMGNAEVVIDGNSYNIYVKSLDGSTIAYHQEILIINKSKDNNYFLVQIY

1. 0.134
2. -0.548

Each sequence below has a recorded value; state its soluble fraction (log2).
1. HMHFENEETFVLPLVREGFSEQQQLEMVDRLLFDANTDNPRWIIDWMASELPSTQRELLLDLEKRLAEVRS
2. HMKTALDEAKDFLNGALSKGHRPASDVVDEAKEASISEKTLKRAKLAIGIITRKEGFGSEGKWVWELPAR
3. HMGKKGPELNDNEKIIFNIISKENSMNLDDLKNRTELSNKQWDKAIKGLRSHELVNIEKIDDQLLIHL
4. HMRRRKPLVSYEYGTRVYAPSEGEPRYRVVATDADGQRVFAKFSSEEAARHRAREIEGRLATS
5. HMLIGLNETESLVLDALIANPMRIDQVSAMLKKDVATTLKFLGGLSVRGLVETLFGGRFAPTKIALHARS
6. HMVDPWLEQVHRASAAYATAHGSARIPTTHPDLGWKVVRVRQRHRKGLLSDEWVAKFEALPGWTWEPK
7. HMWGQDVLFTIDKKEFKGKLLEQSDKHTTFLPDGQKTPQKIPNRLIKEIHLGSNKIIDFGNDFLI

1: -0.358; 2: 0.0771; 3: -0.598; 4: 0.0937; 5: -0.247; 6: -0.471; 7: 0.0314

Given the sequence HMKQTFGAMLAALRKEKGMTQLELAEQMGVTDKAVSKWERDLSFPDVTSLPRLAEILEVSVDELMQ , what is its reported soluble fraction (log2)?
-0.724
